SYSTEM_TESTED: T1, Recombinant purified human PD-1 protein, residues Leu25-Thr168, with a C-terminal 6-His tag (human, UniProt Q15116)
T1 construct: programmed cell death protein 1 (PD-1), human, residues Leu25-Thr168; monomer; the results call it wild-type or full length PD-1 against the P35-Q167 fragment; also called PD-1-His; PD-1 His-tagged monomer; source: bought: R&D Systems; not shown: His6, C-terminal, kept
PROTOCOL_SUMMARY: SPR; Biacore 8K, flat chips (average of C1 and CMD-P); mAbs captured on goat anti-human IgG Fc; PD-1 His-tagged monomer analyte 0.4-100 nM; 25 C; HBS-EP+ pH 7.4; 1:1 Langmuir fit with mass transport; apparent
RUN_CONDITIONS: both partners purified
VALUE_TYPE: pKd
Worth noting: pKd values are minus log10 of concentrations stated in mol/L.

Guide cases for pKd, answers given:
[
  {
    "BINDER": "mAb16 (analog of dostarlimab) (antibody, V domains shown, VH; IgG4 heavy-chain constant region with stabilizing 226CPPC hinge; VL; IgG4 analog; source: HEK293 suspension cells, cotransfected, purified (Protein A)) VH: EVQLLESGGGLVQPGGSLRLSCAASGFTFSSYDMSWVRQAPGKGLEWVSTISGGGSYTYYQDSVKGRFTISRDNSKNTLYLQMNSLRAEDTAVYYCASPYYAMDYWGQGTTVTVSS VL: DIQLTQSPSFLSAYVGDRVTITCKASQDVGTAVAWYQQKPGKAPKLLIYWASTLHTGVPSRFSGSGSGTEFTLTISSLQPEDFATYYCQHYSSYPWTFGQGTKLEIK",
    "pKd": 9.06
  },
  {
    "BINDER": "mAb23 (analog of cemiplimab) (antibody, V domains shown, VH; IgG4 heavy-chain constant region with stabilizing 226CPPC hinge; VL; IgG4 analog; source: HEK293 suspension cells, cotransfected, purified (Protein A)) VH: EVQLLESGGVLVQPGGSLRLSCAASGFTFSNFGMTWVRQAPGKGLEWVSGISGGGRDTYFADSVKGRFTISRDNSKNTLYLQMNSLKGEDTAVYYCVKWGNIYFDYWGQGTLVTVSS VL: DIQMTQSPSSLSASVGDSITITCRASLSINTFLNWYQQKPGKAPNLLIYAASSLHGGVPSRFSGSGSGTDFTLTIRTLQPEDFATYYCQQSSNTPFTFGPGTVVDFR",
    "pKd": 9.09
  }
]

Next binder, pKd to be filled in.
Query: Please report the recorded pKd for mAb04 (analog of retifanlimab) (antibody, V domains shown, VH; IgG4 heavy-chain constant region with stabilizing 226CPPC hinge; VL; IgG4 analog; source: HEK293 suspension cells, cotransfected, purified (Protein A)) VH: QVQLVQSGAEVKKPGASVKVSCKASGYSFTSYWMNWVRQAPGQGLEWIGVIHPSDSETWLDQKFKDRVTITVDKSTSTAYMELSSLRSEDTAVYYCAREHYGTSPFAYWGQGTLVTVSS VL: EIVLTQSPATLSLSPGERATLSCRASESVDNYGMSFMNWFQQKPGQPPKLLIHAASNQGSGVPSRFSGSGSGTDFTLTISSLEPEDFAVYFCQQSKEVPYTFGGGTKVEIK .
Result: 9.46
